# studyTarget: human CYP4F2 (Homo sapiens, UniProt P78329)
# Sequence (P78329 5-520): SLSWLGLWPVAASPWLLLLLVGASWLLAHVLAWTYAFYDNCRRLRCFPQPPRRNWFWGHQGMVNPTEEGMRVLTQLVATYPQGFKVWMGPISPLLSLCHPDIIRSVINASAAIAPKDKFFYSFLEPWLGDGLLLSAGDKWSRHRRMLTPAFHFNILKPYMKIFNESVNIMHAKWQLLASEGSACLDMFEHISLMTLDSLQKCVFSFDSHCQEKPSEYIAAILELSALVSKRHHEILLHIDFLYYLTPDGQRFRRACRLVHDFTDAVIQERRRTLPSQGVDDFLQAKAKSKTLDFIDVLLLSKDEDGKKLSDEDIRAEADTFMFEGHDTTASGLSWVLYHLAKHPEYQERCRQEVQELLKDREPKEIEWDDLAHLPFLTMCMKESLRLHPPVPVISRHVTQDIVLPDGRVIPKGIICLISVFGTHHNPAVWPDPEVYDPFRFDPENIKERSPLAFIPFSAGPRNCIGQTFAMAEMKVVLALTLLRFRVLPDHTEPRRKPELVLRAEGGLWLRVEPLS
Consider the following molecules and their measured IC50 readings.

{"columns": ["molecule", "IC50 [µM]"],
 "data": [
  ["CC(C)(C)OC(=O)N1CC[C@H]1C(=O)N1CCC[C@@H](COc2ccc(-c3ccn[nH]3)nc2)C1", 0.53],
  ["CNC(=O)N1CCC(CCOc2ccc(-c3ccn[nH]3)nc2)CC1", 0.074],
  ["CC(=O)N1CCC(COc2ccc(-c3ccns3)nc2)CC1", 0.044],
  ["CC(=O)N(C)CCC(=O)N1CCC[C@@H](COc2ccc(-c3ccn[nH]3)nc2)C1", 0.9],
  ["COC(=O)N1CCC[C@@H](COc2ccc(-c3ccn[nH]3)nc2)C1", 0.19],
  ["Cc1cn[nH]c1-c1ccc(OC[C@@H]2CCN(S(=O)(=O)C3CC3)C2)cn1", 0.051],
  ["C[C@@H](CNC(=O)OC(C)(C)C)C(=O)N1CCC[C@@H](COc2ccc(-c3ccn[nH]3)nc2)C1", 0.073],
  ["COC(=O)N1CCC(CCOc2ccc(-c3ccn[nH]3)nc2)CC1", 0.07],
  ["COC(=O)N1CCC(CCOc2cnc(-c3ccn[nH]3)c(F)c2)CC1", 0.025],
  ["O=S(=O)(C1CC1)N1CC[C@@H](COc2cnc(-c3ccn[nH]3)c(F)c2)C1", 0.058],
  ["CC(=O)N1CCC(COc2cnc(-c3ccn[nH]3)c(F)c2)CC1", 0.028],
  ["CS(=O)(=O)c1cncc(COc2ccc(-c3n[nH]cc3Cl)nc2)c1", 0.093],
  ["CC(C)OC(=O)NCCS(=O)(=O)N1CCC[C@@H](COc2ccc(-c3ccn[nH]3)nc2)C1", 0.026],
  ["COCCC(=O)N1CCC(COc2ccc(-c3ccn[nH]3)nc2)CC1", 0.29],
  ["CC(C)(C)OC(=O)Nc1cccc(COc2ccc(-c3ccn[nH]3)nc2)c1", 0.095],
  ["CC(C)OC(=O)N1CCC[C@@H](COc2ccc(-c3ccn[nH]3)nc2)C1", 0.13],
  ["c1cc(-c2ccc(OCc3cncc(-n4nccn4)c3)cn2)[nH]n1", 0.23],
  ["FC(F)(F)Oc1ccc(COc2ccc(-c3ccn[nH]3)nc2)cc1", 0.0092],
  ["CC1CCCC(C)N1C(=O)c1cccc(COc2ccc(-c3ccn[nH]3)nc2)c1 (centres unmarked)", 0.35],
  ["CN(C)S(=O)(=O)c1cc(COc2ccc(-c3ccn[nH]3)nc2)ccc1Cl", 0.14]
]}
